# Tested on: blood pressure
# TEST NAME: Hemodynamic responses in the anesthetized rat
# Format: in vivo
# CONDITIONS USED: anesthetized rat, 8 or 16 mg/kg 10 minute IV infusion after heparin 50 U/kg
READOUT NAME: hemodynamic response profile

COc1ccc(NC(=O)[C@H](CCCCN)NC(=O)c2cc(NC(=O)[C@H](CCCCN)NC(=O)c3cc(NC(=O)[C@H](CCCCN)NC(=O)c4cc(NC(=O)[C@@H](N)CCCCN)ccc4OC)ccc3OC)ccc2OC)cc1C(=O)N[C@@H](Cc1c[nH]c2ccccc12)C(=O)O : superior to protamine
COc1ccc(NC(=O)[C@@H](CCCNC(=N)N)NC(=O)c2cc(NC(=O)[C@@H](CCCNC(=N)N)NC(=O)c3cc(NC(=O)[C@@H](CCCNC(=N)N)NC(=O)c4cc(NC(=O)[C@H](N)CCCNC(=N)N)ccc4OC)ccc3OC)ccc2OCC(=O)O)cc1C(=O)N[C@H](Cc1c[nH]c2ccccc12)C(N)=O : superior to protamine
COc1ccc(NC(=O)[C@@H](CCCNC(=N)N)NC(=O)c2cc(NC(=O)[C@@H](CCCNC(=N)N)NC(=O)c3cc(NC(=O)[C@@H](CCCNC(=N)N)NC(=O)c4cc(NC(=O)[C@H](N)CCCNC(=N)N)ccc4OCC(=O)O)ccc3OC)ccc2OC)cc1C(N)=O : superior to protamine
